Reference for the values: paper PMC12040969

Entries and their Average of Relative viability of cells (%)
test system: - MDAMB-231; test: Antiproliferative assay (MTT) MDAMB-231; conditions: MDAMB-231, 100 µM
Output spec: scalar in %, unitless text.

[[record]]
compound = "Cc1ccc(/C=C/C(=O)c2sc(SCC(=O)Nc3nc(-c4ccccc4)cs3)nc2C)cc1 [Compound 10d]"
assay_result = 13.9

[[record]]
compound = "Cc1nc(SCC(=O)Nc2nccs2)sc1C(=O)/C=C/c1ccc(F)cc1 [Compound 13c]"
assay_result = 19.6

[[record]]
compound = "Cc1nc(SCC(=O)Nc2nccs2)sc1C(=O)/C=C/c1ccc(Cl)cc1 [Compound 13b]"
assay_result = 9.2


Now examine the next entry.
For record COc1ccc(/C=C/C(=O)c2sc(SCC(=O)Nc3nc(-c4ccc(C)cc4)cs3)nc2C)cc1 [Compound 10o] the listed Average of Relative viability of cells (%) is 4.5

----------
tested on: tubulin; assay: Tubulin polymerization inhibition assay (Cytoskeleton kit); details: conc 10 (unit not given), 30 min, codes 522-537 run
measurement_type: Tub. enzyme inhibition assay %inhibition (%)
Output spec: scalar in %, unitless text.

Reference set (5 entries):
[[record]]
molecule = "Cc1ccc(/C=C/C(=O)c2sc(SCC(=O)Nc3nc(-c4ccc(Cl)cc4)cs3)nc2C)cc1 [Compound 10i]"
assay_result = 41.3

[[record]]
molecule = "Cc1ccc(-c2csc(NC(=O)CSc3nc(C)c(C(=O)/C=C/c4ccc(Cl)cc4)s3)n2)cc1 [Compound 10l]"
assay_result = 49.3

[[record]]
molecule = "Cc1nc(SCC(=O)Nc2nc(-c3ccc(Cl)cc3)cs2)sc1C(=O)/C=C/c1ccccc1 [Compound 10f]"
assay_result = 58.9

[[record]]
molecule = "Cc1ccc(-c2csc(NC(=O)CSc3nc(C)c(C(=O)/C=C/c4ccccc4)s3)n2)cc1 [Compound 10k]"
assay_result = 36.5

[[record]]
molecule = "COc1ccc(/C=C/C(=O)c2sc(SCC(=O)Nc3nc(-c4ccccc4)cs3)nc2C)cc1 [Compound 10e]"
assay_result = 46


Now examine the next entry.
Test item Cc1nc(SCC(=O)Nc2nc(-c3ccc(Cl)cc3)cs2)sc1C(=O)/C=C/c1ccc(Cl)cc1 [Compound 10g] ; tubulin; reported Tub. enzyme inhibition assay %inhibition was 32.3

----------
Entries and their Average of Relative viability of cells (%)
system: breast - MCF-7; experiment: Antiproliferative assay (MTT) MCF-7; conditions: MCF-7, 6.25 µM
Output spec: scalar in %, unitless text.

Reference set (2 entries):
[[record]]
compound = "Cc1nc(SCC(=O)Nc2nc(-c3ccc(Cl)cc3)cs2)sc1C(=O)/C=C/c1ccccc1 [Compound 10f]"
assay_result = 68.3

[[record]]
compound = "Cc1nc(SCC(=O)Nc2nc(-c3ccc(Cl)cc3)cs2)sc1C(=O)/C=C/c1ccc(F)cc1 [Compound 10h]"
assay_result = 76.5


For record Cc1nc(SCC(=O)Nc2nccs2)sc1C(=O)/C=C/c1ccc(Cl)cc1 [Compound 13b] the listed Average of Relative viability of cells (%) is 57.1

For record COc1ccc(/C=C/C(=O)c2sc(SCC(=O)Nc3nc(-c4ccc(C)cc4)cs3)nc2C)cc1 [Compound 10o] the listed Average of Relative viability of cells (%) is 45.1

For record Cc1ccc(/C=C/C(=O)c2sc(SCC(=O)Nc3nccs3)nc2C)cc1 [Compound 13d] the listed Average of Relative viability of cells (%) is 45.2

For record Cc1nc(SCC(=O)Nc2nccs2)sc1C(=O)/C=C/c1ccc(F)cc1 [Compound 13c] the listed Average of Relative viability of cells (%) is 83.0

For record Cc1ccc(/C=C/C(=O)c2sc(SCC(=O)Nc3nc(-c4ccccc4)cs3)nc2C)cc1 [Compound 10d] the listed Average of Relative viability of cells (%) is 57.3

For record Cc1ccc(-c2csc(NC(=O)CSc3nc(C)c(C(=O)/C=C/c4ccc(F)cc4)s3)n2)cc1 [Compound 10m] the listed Average of Relative viability of cells (%) is 72.7

----------
system: tubulin; experiment: Tubulin polymerization inhibition assay (Cytoskeleton kit); conditions: read-out: Tubulin inhibition IC50 ± SEM; triplicate for each tested concentration
pIC50: −log10 of the molar value.
The threshold is inclusive: pIC50 of exactly 5 counts as 1.0; values below receive 0.0.

[[record]]
compound = "Cc1nc(SCC(=O)Nc2nc(-c3ccc(Cl)cc3)cs2)sc1C(=O)/C=C/c1ccc(Cl)cc1 [Compound 10g]"
assay_system = "tubulin"
label_class = 0.0


[ask] Does the compound Cc1ccc(/C=C/C(=O)c2sc(SCC(=O)Nc3nccs3)nc2C)cc1 [Compound 13d] have recorded pIC50 that is 5 or more?
[reply] 1.0

[ask] Does the compound Cc1ccc(/C=C/C(=O)c2sc(SCC(=O)Nc3nc(-c4ccc(C)cc4)cs3)nc2C)cc1 [Compound 10n] have recorded pIC50 that is 5 or more?
[reply] 0.0

[ask] Does the compound COc1ccc(/C=C/C(=O)c2sc(SCC(=O)Nc3nc(-c4ccccc4)cs3)nc2C)cc1 [Compound 10e] have recorded pIC50 that is 5 or more?
[reply] 0.0

[ask] Does the compound COc1ccc(/C=C/C(=O)c2sc(SCC(=O)Nc3nc(-c4ccc(Cl)cc4)cs3)nc2C)cc1 [Compound 10j] have recorded pIC50 that is 5 or more?
[reply] 0.0

[ask] Does the compound Cc1nc(SCC(=O)Nc2nc(-c3ccccc3)cs2)sc1C(=O)/C=C/c1ccc(F)cc1 [Compound 10c] have recorded pIC50 that is 5 or more?
[reply] 0.0

----------
system: prostatic - PC-3; assay: Antiproliferative assay (MTT) PC-3; details: PC-3, 6.25 µM
measurement_type: Average of Relative viability of cells (%)
Output spec: scalar in %, unitless text.

[[record]]
compound = "Cc1nc(SCC(=O)Nc2nccs2)sc1C(=O)/C=C/c1ccc(F)cc1 [Compound 13c]"
unit_name = "%"
assay_result = 87.9

[[record]]
compound = "Cc1ccc(/C=C/C(=O)c2sc(SCC(=O)Nc3nccs3)nc2C)cc1 [Compound 13d]"
unit_name = "%"
assay_result = 57.8

[[record]]
compound = "Cc1nc(SCC(=O)Nc2nc(-c3ccc(Cl)cc3)cs2)sc1C(=O)/C=C/c1ccccc1 [Compound 10f]"
unit_name = "%"
assay_result = 70.5

[[record]]
compound = "Cc1ccc(-c2csc(NC(=O)CSc3nc(C)c(C(=O)/C=C/c4ccc(F)cc4)s3)n2)cc1 [Compound 10m]"
unit_name = "%"
assay_result = 84.1

[[record]]
compound = "Cc1ccc(/C=C/C(=O)c2sc(SCC(=O)Nc3nc(-c4ccccc4)cs3)nc2C)cc1 [Compound 10d]"
unit_name = "%"
assay_result = 69.6


For record Cc1nc(SCC(=O)Nc2nccs2)sc1C(=O)/C=C/c1ccc(Cl)cc1 [Compound 13b] the listed Average of Relative viability of cells (%) is 69.2

For record Cc1nc(SCC(=O)Nc2nc(-c3ccc(Cl)cc3)cs2)sc1C(=O)/C=C/c1ccc(F)cc1 [Compound 10h] the listed Average of Relative viability of cells (%) is 100

For record COc1ccc(/C=C/C(=O)c2sc(SCC(=O)Nc3nc(-c4ccc(C)cc4)cs3)nc2C)cc1 [Compound 10o] the listed Average of Relative viability of cells (%) is 61.1

----------
test system: tubulin; experiment: Tubulin polymerization inhibition assay (Cytoskeleton kit); conditions: conc 100 (unit not given), control = 120, codes 522-537 run;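 also: Cell-free tubulin polymerization read by fluorescent reporter enhancement over a 30 min reaction, with the compound-free kit control taken as 100% activity and inhibition relative to it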
measurement_type: Tub. enzyme inhibition assay K. Activity
Please respond with just the number, no unit label.

Reference set (3 entries):
[[record]]
compound = "Cc1ccc(-c2csc(NC(=O)CSc3nc(C)c(C(=O)/C=C/c4ccc(F)cc4)s3)n2)cc1 [Compound 10m]"
assay_result = 22.611

[[record]]
compound = "Cc1nc(SCC(=O)Nc2nc(-c3ccc(Cl)cc3)cs2)sc1C(=O)/C=C/c1ccc(Cl)cc1 [Compound 10g]"
assay_result = 35.432

[[record]]
compound = "Cc1ccc(-c2csc(NC(=O)CSc3nc(C)c(C(=O)/C=C/c4ccc(Cl)cc4)s3)n2)cc1 [Compound 10l]"
assay_result = 24.585


Now examine the next entry.
For record Cc1ccc(/C=C/C(=O)c2sc(SCC(=O)Nc3nc(-c4ccc(Cl)cc4)cs3)nc2C)cc1 [Compound 10i] the listed Tub. enzyme inhibition assay K. Activity is 33.442

----------
tested on: - MDAMB-231; test: Antiproliferative assay (MTT) MDAMB-231; conditions: MDAMB-231, 12.5 µM
measurement_type: Average of Relative viability of cells (%)
Output spec: scalar in %, unitless text.

[[record]]
molecule = "Cc1ccc(-c2csc(NC(=O)CSc3nc(C)c(C(=O)/C=C/c4ccc(F)cc4)s3)n2)cc1 [Compound 10m]"
assay_result = 55.2


Test item Cc1ccc(/C=C/C(=O)c2sc(SCC(=O)Nc3nc(-c4ccccc4)cs3)nc2C)cc1 [Compound 10d] ; - MDAMB-231; reported Average of Relative viability of cells (%) was 31.6

Test item Cc1ccc(/C=C/C(=O)c2sc(SCC(=O)Nc3nccs3)nc2C)cc1 [Compound 13d] ; - MDAMB-231; reported Average of Relative viability of cells (%) was 35.2

Test item Cc1nc(SCC(=O)Nc2nccs2)sc1C(=O)/C=C/c1ccc(Cl)cc1 [Compound 13b] ; - MDAMB-231; reported Average of Relative viability of cells (%) was 34.6
